FYI, the data here is from patent US9096593B2.

Entries annotated with measured IC50
Biological target: c-Kit kinase (Homo sapiens (Human), UniProt P10721)
Sequence (P10721 26-976): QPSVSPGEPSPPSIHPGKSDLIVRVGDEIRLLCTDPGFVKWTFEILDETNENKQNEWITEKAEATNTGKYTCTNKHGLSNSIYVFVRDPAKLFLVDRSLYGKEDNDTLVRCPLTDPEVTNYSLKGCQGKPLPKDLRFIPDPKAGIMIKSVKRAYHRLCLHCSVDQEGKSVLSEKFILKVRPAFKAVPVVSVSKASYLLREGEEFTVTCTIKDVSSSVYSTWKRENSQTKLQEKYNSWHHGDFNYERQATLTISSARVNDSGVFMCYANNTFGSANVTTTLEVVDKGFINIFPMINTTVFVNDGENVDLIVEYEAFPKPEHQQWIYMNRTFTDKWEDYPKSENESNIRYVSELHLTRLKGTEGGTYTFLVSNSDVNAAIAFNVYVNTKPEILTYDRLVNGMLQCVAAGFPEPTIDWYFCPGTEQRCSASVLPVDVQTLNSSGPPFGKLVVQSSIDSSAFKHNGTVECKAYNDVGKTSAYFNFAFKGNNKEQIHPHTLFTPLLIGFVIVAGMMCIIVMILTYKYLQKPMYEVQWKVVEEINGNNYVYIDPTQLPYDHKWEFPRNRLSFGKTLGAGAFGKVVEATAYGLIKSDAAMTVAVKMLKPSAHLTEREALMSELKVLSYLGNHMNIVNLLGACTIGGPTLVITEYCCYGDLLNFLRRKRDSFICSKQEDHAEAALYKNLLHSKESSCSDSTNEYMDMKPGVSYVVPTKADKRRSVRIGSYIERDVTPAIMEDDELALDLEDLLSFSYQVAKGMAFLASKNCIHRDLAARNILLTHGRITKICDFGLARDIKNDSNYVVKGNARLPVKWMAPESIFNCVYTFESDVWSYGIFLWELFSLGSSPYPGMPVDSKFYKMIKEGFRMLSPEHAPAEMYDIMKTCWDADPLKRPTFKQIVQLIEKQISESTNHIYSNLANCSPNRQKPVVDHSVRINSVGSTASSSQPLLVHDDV
Assay: c-Kit kinase biochemical activity assay (AlphaScreen, biotin-(E4Y)10 phosphorylation)

Smiles Record: COc1cnc2[nH]cc(Cc3ccc(NCc4cncc(F)c4)nc3F)c2c1
IC50: > 0.1 µM

Smiles Record: COc1cccc(CNc2ncc(Cc3c[nH]c4ncc(Cl)cc34)s2)n1
IC50: > 0.1 µM

Smiles Record: Cc1cnc2[nH]cc(Cc3ccc(NCc4cnccc4C(F)(F)F)nc3F)c2c1
IC50: > 0.1 µM

Smiles Record: COc1ccc(CNc2ncc(Cc3c[nH]c4ncc(Cl)cc34)s2)cn1
IC50: < 0.1 µM

Smiles Record: COc1ccc(CNc2ncc(Cc3c[nH]c4ncc(C)cc34)cn2)cn1
IC50: > 0.1 µM

Smiles Record: Cc1cnc2[nH]cc(Cc3ccc(NCc4cnccc4C(F)(F)F)nc3)c2c1
IC50: < 0.1 µM

Smiles Record: COc1ncccc1CNc1ccc(Cc2c[nH]c3ncc(C)cc23)c(F)n1
IC50: > 0.1 µM

Smiles Record: COc1ccc(CNc2ccc(Cc3c[nH]c4ncc(F)cc34)c(F)n2)cn1
IC50: > 0.1 µM

Smiles Record: COc1ncc(F)cc1CNc1ncc(Cc2c[nH]c3ncc(C)cc23)cn1
IC50: > 0.1 µM

Smiles Record: COc1ncccc1CNc1ncc(Cc2c[nH]c3ncc(C)cc23)cn1
IC50: > 0.1 µM

Smiles Record: COc1cnc2[nH]cc(Cc3ccc(NCc4ccc(Cl)cc4)nc3F)c2c1
IC50: < 0.1 µM

Smiles Record: Cc1cnc2[nH]cc(Cc3cnc(NCc4cccc(N5CCOCC5)n4)nc3)c2c1
IC50: < 0.1 µM

Smiles Record: CCS(=O)(=O)Nc1cc(F)cc(CNc2ccc(Cc3c[nH]c4ncc(C)cc34)c(F)n2)c1
IC50: > 0.1 µM

Smiles Record: COc1ccnc2[nH]cc(Cc3ccc(NCc4ccc(Cl)cc4)nc3F)c12
IC50: > 0.1 µM

Smiles Record: COc1cnc2[nH]cc(Cc3cnc(NCc4ccc(C(F)(F)F)nc4)c(F)c3)c2c1
IC50: < 0.1 µM

Smiles Record: Cc1cnc2[nH]cc(Cc3cnc(NCc4cccc(N5CCCC5)n4)nc3)c2c1
IC50: < 0.1 µM

Smiles Record: Cc1cnc2[nH]cc(Cc3cnc(NCc4cccc(C)n4)nc3)c2c1
IC50: < 0.1 µM

Smiles Record: Cn1cc(F)cc(CNc2ncc(Cc3c[nH]c4ncc(Cl)cc34)cn2)c1=O
IC50: > 0.1 µM

Smiles Record: Cc1cnc2[nH]cc(Cc3ccc(NCc4ccc(C(F)(F)F)nc4)nc3F)c2c1
IC50: > 0.1 µM

Smiles Record: COc1ncccc1CNc1ccc(Cc2c[nH]c3ncccc23)c(F)n1
IC50: > 0.1 µM

Smiles Record: Cc1cccc(CNc2ncc(Cc3c[nH]c4ncc(Cl)cc34)cn2)c1
IC50: < 0.1 µM

Smiles Record: Fc1ccc(CNc2ccc(Cc3c[nH]c4ncc(Cl)cc34)cn2)cn1
IC50: < 0.1 µM

Smiles Record: COc1cc(CNc2ccc(Cc3c[nH]c4ncc(C)cc34)c(F)n2)c(F)cn1
IC50: > 0.1 µM

Smiles Record: Clc1cnc2[nH]cc(Cc3ccc(NCc4ccc(Cl)nc4)nc3)c2c1
IC50: < 0.1 µM

Smiles Record: Fc1cncc(CNc2ncc(Cc3c[nH]c4ncc(Cl)cc34)cn2)c1
IC50: > 0.1 µM

Smiles Record: COc1ncc(F)cc1CNc1ncc(Cc2c[nH]c3ncc(Cl)cc23)cn1
IC50: > 0.1 µM

Smiles Record: COc1cnc2[nH]cc(Cc3ccc(NCc4ccc(OC)nc4)nc3F)c2c1
IC50: > 0.1 µM

Smiles Record: Fc1ccc(CNc2ncc(Cc3c[nH]c4ncc(Cl)cc34)cn2)cc1F
IC50: < 0.1 µM

Smiles Record: Cc1cnc2[nH]cc(Cc3cnc(NCc4ccc(C(F)(F)F)nc4)c(F)c3)c2c1
IC50: < 0.1 µM

Smiles Record: CCS(=O)(=O)Nc1ccccc1CNc1ccc(Cc2c[nH]c3ncc(C)cc23)c(F)n1
IC50: > 0.1 µM

Smiles Record: Cc1cnc2[nH]cc(Cc3ccc(NCc4ccnc(F)c4)nc3F)c2c1
IC50: > 0.1 µM

Smiles Record: COc1ccc(CNc2ccc(Cc3c[nH]c4ncc(C)cc34)c(F)n2)cn1
IC50: > 0.1 µM

Smiles Record: Cc1cnc2[nH]cc(Cc3ccc(NCc4ccc(Cl)nc4)nc3F)c2c1
IC50: > 0.1 µM

Smiles Record: Cc1cnc2[nH]cc(Cc3ccc(NCc4ccc(C(F)(F)F)nc4)nc3)c2c1
IC50: < 0.1 µM
